assay: Lipophilicity, log D of the compound at pH 7.4 by RP-HPLC method; assay type: physicochemical; details: buffer
QUANTITY_MEASURED: chromatographic logD
Would you mind answering with just the numeric figure?

Prompt line: Fill in reported chromatographic logD for this entry: CN1C(=O)[C@@H](NC(=O)c2cn(Cc3ccccc3)nn2)COc2ccccc21
Response line: 4.6

Prompt line: Fill in reported chromatographic logD for this entry: CN1C(=O)[C@@H](NC(=O)c2nnc(Cc3ccccc3)o2)COc2ccccc21
Response line: 4.9

Prompt line: Fill in reported chromatographic logD for this entry: CN1C(=O)[C@@H](NC(=O)c2noc(Cc3ccccc3)n2)COc2ccccc21
Response line: 5.4

Prompt line: Fill in reported chromatographic logD for this entry: CN1C(=O)[C@@H](NC(=O)c2cc(Cc3ccccc3)on2)CCc2ccccc21
Response line: 6

Prompt line: Fill in reported chromatographic logD for this entry: CN1C[C@H](NC(=O)c2cc(Cc3ccccc3)on2)C(=O)N(C)c2ccccc21
Response line: 6

====

assay: Cmax in cynomolgus monkey at 1.9 mg/kg, po; format: ADME, organism-based, Macaca fascicularis; design: dose 1.9 mg/kg, route oral; details: in vivo
QUANTITY_MEASURED: Cmax (ng/mL)
All answers are understood in ng/mL, so give the number only.

Prompt line: Fill in reported Cmax for this entry: CN1C(=O)[C@@H](NC(=O)c2nnc(Cc3ccccc3)[nH]2)COc2ccccc21
Response line: 720

====

experiment: Solubility of the compound in FaSSIF; assay type: physicochemical
Please provide measured solubility for the entries that follow.

Prompt line: Fill in reported solubility for this entry: CN1C(=O)[C@@H](NC(=O)c2nnc(Cc3ccccc3)[nH]2)COc2ccccc21
Response line: 230 µg/mL

Prompt line: Fill in reported solubility for this entry: CN1C(=O)[C@@H](NC(=O)c2cc(Cc3ccccc3)on2)COc2ccc(-c3n[nH]c(=O)o3)cc21
Response line: 8 µg/mL

Prompt line: Fill in reported solubility for this entry: CN1C(=O)[C@@H](NC(=O)c2cc(Cc3ccccc3)on2)CNc2ccccc21
Response line: 97 µg/mL

Prompt line: Fill in reported solubility for this entry: CN1C(=O)[C@@H](NC(=O)c2cc(Cc3ccccc3)on2)COc2ccccc21
Response line: 30 µg/mL

====

Please provide measured IC50 for the entries that follow.
biological target: Receptor-interacting serine/threonine-protein kinase 1 (Homo sapiens); experiment: Displacement of (14-(2-{[3-({2-{[4-(cyanomethyl)phenyl]amino}-6-[(5-cyclopropyl-1H-pyrazol-3-yl)-amino]-4-pyrimidinyl}amino)propyl]amino}-2-oxoethyl)-16,16,18,18-tetramethyl-6,7,7a,8a,9,10,16,18-octahydrobenzo[2'',3'']indolizino-[8'',7'':5',6']pyrano[3',2':3,4]pyrido[1,2-a]indol-5-ium-2-sulfonate from human RIP1 (1 to 375 residues) expressed in baculovirus infected insect cells measured for 50 min

Prompt line: Fill in reported IC50 for this entry: O=C(N[C@H]1COc2ccccc2N(C2CC2)C1=O)c1cc(Cc2ccccc2)on1
Response line: > 10 µM

Prompt line: Fill in reported IC50 for this entry: CN(C(=O)c1cc(Cc2ccccc2)on1)[C@H]1COc2ccccc2NC1=O
Response line: > 10 µM

Prompt line: Fill in reported IC50 for this entry: O=C(N[C@H]1CO[C@@H]2CCCC[C@H]2NC1=O)c1cc(Cc2ccccc2)on1
Response line: > 10 µM

Entry source: ChEMBL document CHEMBL3997808
